Tested on: panel of 140 standard cancer cell lines
Assay: ProliFiler-140 cancer cell line screen (CellTiterGlo, 72 h)
Type: cell-based
Conditions: read-out: IC50 [M] (ProliFiler-140); MKN-1 (Stomach)

# COMPOUND, IC50 (M)
rows = [
    ("COc1cc2cc(C(=O)N3C[C@@H](CCl)c4c3cc(OC(=O)N3CCN(C(=O)CCC(=O)N5CCN(C)CC5)[C@H]5CSSC[C@H]53)c3ccccc43)[nH]c2c(OC)c1OC [P-SS66C-CBI-TMI]", "1.38e-07"),
]

###

System: NCI-60 standardized human tumor cell line panel
Assay: cells
Assay type: cell-based
Conditions: T-47D; read-out: GI50
RECORDED ENDPOINT: GI50 (nM)

# MOLECULE, UNIT SPEC, OBSERVED
records = [
    ("COc1cc2cc(C(=O)N3CC(CCl)c4c3cc(OC(=O)N3CCN(C)C5CSSCC53)c3ccccc43)[nH]c2c(OC)c1OC (mixture of isomers) [Me-SS66C-CBI-TMI]", "nM", 290),
    ("COc1cc2cc(C(=O)N3C[C@@H](CCl)c4c3cc(OC(=O)N(CCC(=O)N3CCN(C)CC3)C3CCCCC3)c3ccccc43)[nH]c2c(OC)c1OC", "nM", 1900),
    ("COc1cc2cc(C(=O)N3CC(CCl)c4c3cc(OC(=O)N3CCN(C)C5CSSCC53)c3ccccc43)[nH]c2c(OC)c1OC (mixture of isomers) [Me-SS66T-CBI-TMI]", "nM", 50),
    ("COc1cc2cc(C(=O)N3C[C@@H](CCl)c4c3cc(OC(=O)N(C)CCSSCCN3CCOCC3)c3ccccc43)[nH]c2c(OC)c1OC [SS00M-CBI-TMI]", "nM", 50),
    ("COc1cc2cc(C(=O)N3C[C@@H](CCl)c4c3cc(OC(=O)N(CCC(=O)N3CCN(C)CC3)[C@H]3CCSSC3)c3ccccc43)[nH]c2c(OC)c1OC", "nM", 700),
]

###

Measured NCI-60 screening: Log(GI50) values are reported for all entries that follow.
Test system: NCI-60 standardized human tumor cell line panel
Experiment: cells
Assay type: cell-based
Details: cell line NCI-H226 (LC:NCI-H226); TMI sheet
RECORDED ENDPOINT: NCI-60 screening: Log(GI50)

# MOLECULE, OBSERVED
measured = [
    ("COc1cc2cc(C(=O)N3C[C@@H](CCl)c4c3cc(OC(=O)N(CCC(=O)N3CCN(C)CC3)[C@H]3CCSSC3)c3ccccc43)[nH]c2c(OC)c1OC [P-SS60-CBI-TMI]", -6.36),
    ("COc1cc2cc(C(=O)N3C[C@@H](CCl)c4c3cc(OC(=O)N(CCC(=O)N3CCN(C)CC3)C3CCCCC3)c3ccccc43)[nH]c2c(OC)c1OC [P-CC60-CBI-TMI]", -5.84),
    ("COc1cc2cc(C(=O)N3CC(CCl)c4c3cc(OC(=O)N3CCN(C)C5CSSCC53)c3ccccc43)[nH]c2c(OC)c1OC (mixture of isomers) [Me-SS66T-CBI-TMI]", -7.02),
    ("COc1cc2cc(C(=O)N3CC(CCl)c4c3cc(OC(=O)N3CCN(C)C5CSSCC53)c3ccccc43)[nH]c2c(OC)c1OC (mixture of isomers) [Me-SS66C-CBI-TMI]", -5.99),
]

###

Measured IC50 values are reported for all entries that follow.
Test system: panel of 140 standard cancer cell lines
Test: ProliFiler-140 cancer cell line screen (CellTiterGlo, 72 h)
Type: cell-based
Settings: A549 (Lung); read-out: IC50 [M] (ProliFiler-140)

# MOLECULE, UNIT SPEC, IC50
records = [
    ("COc1cc2cc(C(=O)N3C[C@@H](CCl)c4c3cc(OC(=O)N(CCC(=O)N3CCN(C)CC3)[C@H]3CCSSC3)c3ccccc43)[nH]c2c(OC)c1OC [P-SS60-CBI-TMI]", "M", "1.2e-07"),
    ("COc1cc2cc(C(=O)N3C[C@@H](CCl)c4c3cc(OC(=O)N(CCC(=O)N3CCN(C)CC3)C3CCCCC3)c3ccccc43)[nH]c2c(OC)c1OC [P-CC60-CBI-TMI]", "M", "7.7e-07"),
]

###

System: panel of 140 standard cancer cell lines
Experiment: ProliFiler-140 cancer cell line screen (CellTiterGlo, 72 h)
Type: cell-based
Conditions: Homo sapiens, SW480, SW480 (Colon); read-out: IC50 [M] (ProliFiler-140)

# COMPOUND, MEASUREMENT TARGET, IC50
records = [
    ("COc1cccc2c1C(=O)c1c(O)c3c(c(O)c1C2=O)C[C@@](O)(C(=O)CO)C[C@@H]3O[C@H]1C[C@H](N)[C@H](O)[C@H](C)O1 [doxorubicin, reference compound]", "panel of 140 standard cancer cell lines", "1.2e-07 M"),
]

###

System: NCI-60 standardized human tumor cell line panel
Test: cells
Assay type: cell-based
Details: HCT-15; read-out: GI50
RECORDED ENDPOINT: log10(GI50) (log10 of the value in µM)

# COMPOUND, MEASUREMENT TARGET, OBSERVED
records = [
    ("COc1cc2cc(C(=O)N3C[C@@H](CCl)c4c3cc(OC(=O)N(CCC(=O)N3CCN(C)CC3)[C@H]3CCSSC3)c3ccccc43)[nH]c2c(OC)c1OC", "NCI-60 standardized human tumor cell line panel", -0.59),
    ("COc1cc2cc(C(=O)N3CC(CCl)c4c3cc(OC(=O)N3CCN(C)C5CSSCC53)c3ccccc43)[nH]c2c(OC)c1OC (mixture of isomers) [Me-SS66T-CBI-TMI]", "NCI-60 standardized human tumor cell line panel", -1.66),
    ("COc1cc2cc(C(=O)N3CC(CCl)c4c3cc(OC(=O)N3CCN(C)C5CSSCC53)c3ccccc43)[nH]c2c(OC)c1OC (mixture of isomers) [Me-SS66C-CBI-TMI]", "NCI-60 standardized human tumor cell line panel", -0.60),
    ("COc1cc2cc(C(=O)N3C[C@@H](CCl)c4c3cc(OC(=O)N(C)CCSSCCN3CCOCC3)c3ccccc43)[nH]c2c(OC)c1OC [SS00M-CBI-TMI]", "NCI-60 standardized human tumor cell line panel", -0.72),
    ("COc1cc2cc(C(=O)N3C[C@@H](CCl)c4c3cc(OC(=O)N(CCC(=O)N3CCN(C)CC3)C3CCCCC3)c3ccccc43)[nH]c2c(OC)c1OC", "NCI-60 standardized human tumor cell line panel", 0.23),
]

###

Tested on: panel of 140 standard cancer cell lines
Assay: ProliFiler-140 cancer cell line screen (CellTiterGlo, 72 h)
Type: cell-based
Settings: Homo sapiens, HEC-1B, HEC-1-B (Endometrium); read-out: IC50 [M] (ProliFiler-140)
RECORDED ENDPOINT: IC50

# COMPOUND, MEASUREMENT TARGET, OBSERVED
rows = [
    ("COc1cccc2c1C(=O)c1c(O)c3c(c(O)c1C2=O)C[C@@](O)(C(=O)CO)C[C@@H]3O[C@H]1C[C@H](N)[C@H](O)[C@H](C)O1 [doxorubicin, reference compound]", "panel of 140 standard cancer cell lines", "2.4e-06 M"),
]

###

Test system: NCI-60 standardized human tumor cell line panel
Test: cells
Format: cell-based
Conditions: MALME-3M; AZI sheet; read-out: GI50
RECORDED ENDPOINT: log10 of GI50 (log10 of the value in nM)

# COMPOUND, log10 of GI50
measured = [
    ("CN1CCN(C(=O)CCN(C(=O)Oc2cc3c(c4ccccc24)[C@H](CCl)CN3C(=O)c2cc3cc(OCCCN4CCC4)ccc3[nH]2)[C@H]2CCSSC2)CC1", 2.36),
    ("O=C(c1cc2cc(OCCCN3CCC3)ccc2[nH]1)N1C[C@@H](CCl)c2c1cc(OCc1ccccc1)c1ccccc21", 2.45),
    ("CN1CCN(C(=O)Oc2cc3c(c4ccccc24)C(CCl)CN3C(=O)c2cc3cc(OCCCN4CCC4)ccc3[nH]2)C2CSSCC21 (mixture of isomers) [Me-SS66C-CBI-AZI]", 1.28),
    ("CN1CCN(C(=O)Oc2cc3c(c4ccccc24)C(CCl)CN3C(=O)c2cc3cc(OCCCN4CCC4)ccc3[nH]2)C2CSSCC21 (mixture of isomers) [Me-SS66T-CBI-AZI]", 0.81),
    ("CN(CCSSCCN1CCOCC1)C(=O)Oc1cc2c(c3ccccc13)[C@H](CCl)CN2C(=O)c1cc2cc(OCCCN3CCC3)ccc2[nH]1 [SS00M-CBI-AZI]", 1.68),
]

###

System: panel of 140 standard cancer cell lines
Assay: ProliFiler-140 cancer cell line screen (CellTiterGlo, 72 h)
Type: cell-based
Conditions: Homo sapiens, DU-145, DU-145 (Prostate); read-out: IC50 [M] (ProliFiler-140)
Description: Incubations were performed for 72 h before automated viability readout with CellTiterGlo (Figure 8). End of Figure S11 (part 5 of 5): ProliFiler-140 cancer cell line screening for cytotoxicity of the prodrugs. 8-data-point dose response curves from CellTiter-Glo® viability readout. ProliFiler-140 cell line panel part V

# COMPOUND, MEASUREMENT TARGET, IC50 [M]
data = [
    ("COc1cccc2c1C(=O)c1c(O)c3c(c(O)c1C2=O)C[C@@](O)(C(=O)CO)C[C@@H]3O[C@H]1C[C@H](N)[C@H](O)[C@H](C)O1 [doxorubicin, reference compound]", "panel of 140 standard cancer cell lines", "1.5e-07"),
]
